We begin with a simple list: items and their reported relative cell viability.
tested on: HCC1937; experiment: relative cell viability, compound + RSL3, vs DMSO (fraction of DMSO control); higher = less growth inhibition; details: 72 h
Structures can show the parent of a compound that is named as a salt.

[
  {
    "molecule": "Cc1cc(SCc2sc(-c3ccc(C(F)(F)F)c(F)c3)nc2C)ccc1OCC(=O)O + COC(=O)c1ccc([C@H]2c3[nH]c4ccccc4c3C[C@H](C(=O)OC)N2C(=O)CCl)cc1",
    "relative cell viability": 0.59
  },
  {
    "molecule": "O=C(Oc1ccc([N+](=O)[O-])cc1)N1CCN(Cc2cccc(Oc3ccccc3)c2)CC1 + COC(=O)c1ccc([C@H]2c3[nH]c4ccccc4c3C[C@H](C(=O)OC)N2C(=O)CCl)cc1",
    "relative cell viability": 0.673
  },
  {
    "molecule": "COc1ccc(CN2CCNCC2)c(OC)c1OC [Trimetazidine dihydrochloride] + COC(=O)c1ccc([C@H]2c3[nH]c4ccccc4c3C[C@H](C(=O)OC)N2C(=O)CCl)cc1",
    "relative cell viability": 0.782
  }
]

---

We begin with a simple list: items and their reported relative cell viability.
test system: HCC1937; assay: relative cell viability, compound + erastin, vs DMSO (fraction of DMSO control); higher = less growth inhibition; conditions: 72 h
assayReadout: relative cell viability

[
  {
    "compound": "C[C@H](CCC(=O)O)[C@H]1CC[C@H]2[C@@H]3CC[C@@H]4C[C@H](O)CC[C@]4(C)[C@H]3CC[C@]12C [Lithocholic acid] + CCOc1ccccc1-n1c(C(C)N2CCN(C(=O)COc3ccc(Cl)cc3)CC2)nc2ccccc2c1=O",
    "val": 0.832
  },
  {
    "compound": "Cc1nc2ccc(C(=O)N3CCC4(CC3)CC(=O)c3c(cnn3C(C)C)C4)cc2[nH]1 + CCOc1ccccc1-n1c(C(C)N2CCN(C(=O)COc3ccc(Cl)cc3)CC2)nc2ccccc2c1=O",
    "val": 0.619
  },
  {
    "compound": "CCC(=O)O[C@]1(C(=O)CCl)[C@@H](C)C[C@H]2[C@@H]3C[C@H](F)C4=CC(=O)C=C[C@]4(C)[C@@]3(F)[C@@H](O)C[C@@]21C [Halobetasol Propionate] + CCOc1ccccc1-n1c(C(C)N2CCN(C(=O)COc3ccc(Cl)cc3)CC2)nc2ccccc2c1=O",
    "val": 0.708
  },
  {
    "compound": "Oc1ccc(/C=C/c2cc(O)cc(O)c2)cc1 [Resveratrol] + CCOc1ccccc1-n1c(C(C)N2CCN(C(=O)COc3ccc(Cl)cc3)CC2)nc2ccccc2c1=O",
    "val": 0.635
  }
]

---

system: MDA-MB-231; test: relative cell viability, compound + erastin, vs DMSO (fraction of DMSO control); higher = less growth inhibition; conditions: 72 h
We begin with a simple list: items and their reported relative cell viability.
assayReadout: relative cell viability

[
  {
    "compound": "Cc1cc(SCc2sc(-c3ccc(C(F)(F)F)c(F)c3)nc2C)ccc1OCC(=O)O + CCOc1ccccc1-n1c(C(C)N2CCN(C(=O)COc3ccc(Cl)cc3)CC2)nc2ccccc2c1=O [erastin]",
    "val": 0.799
  },
  {
    "compound": "CC(C)c1cc(C(C)C)c(CC(=O)NS(=O)(=O)Oc2c(C(C)C)cccc2C(C)C)c(C(C)C)c1 [Avasimibe] + CCOc1ccccc1-n1c(C(C)N2CCN(C(=O)COc3ccc(Cl)cc3)CC2)nc2ccccc2c1=O [erastin]",
    "val": 0.791
  },
  {
    "compound": "Cc1c(C(=O)NN2CCCCC2)nn(-c2ccc(Cl)cc2Cl)c1-c1ccc(Cl)cc1 [Rimonabant] + CCOc1ccccc1-n1c(C(C)N2CCN(C(=O)COc3ccc(Cl)cc3)CC2)nc2ccccc2c1=O [erastin]",
    "val": 0.273
  },
  {
    "compound": "COc1c(/C=C/C(=O)c2ccc(O)cc2)ccc(O)c1CC=C(C)C + CCOc1ccccc1-n1c(C(C)N2CCN(C(=O)COc3ccc(Cl)cc3)CC2)nc2ccccc2c1=O [erastin]",
    "val": 0.749
  },
  {
    "compound": "Cc1ccc(C)c(OCCCC(C)(C)C(=O)O)c1 [Gemfibrozil] + CCOc1ccccc1-n1c(C(C)N2CCN(C(=O)COc3ccc(Cl)cc3)CC2)nc2ccccc2c1=O [erastin]",
    "val": 0.941
  }
]
